Biological target: Tyrosine-protein kinase Srms (Homo sapiens) (UniProt Q9H3Y6);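 note: reported value is a mean of the inhibition readings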
Sequence (Q9H3Y6 whole entry): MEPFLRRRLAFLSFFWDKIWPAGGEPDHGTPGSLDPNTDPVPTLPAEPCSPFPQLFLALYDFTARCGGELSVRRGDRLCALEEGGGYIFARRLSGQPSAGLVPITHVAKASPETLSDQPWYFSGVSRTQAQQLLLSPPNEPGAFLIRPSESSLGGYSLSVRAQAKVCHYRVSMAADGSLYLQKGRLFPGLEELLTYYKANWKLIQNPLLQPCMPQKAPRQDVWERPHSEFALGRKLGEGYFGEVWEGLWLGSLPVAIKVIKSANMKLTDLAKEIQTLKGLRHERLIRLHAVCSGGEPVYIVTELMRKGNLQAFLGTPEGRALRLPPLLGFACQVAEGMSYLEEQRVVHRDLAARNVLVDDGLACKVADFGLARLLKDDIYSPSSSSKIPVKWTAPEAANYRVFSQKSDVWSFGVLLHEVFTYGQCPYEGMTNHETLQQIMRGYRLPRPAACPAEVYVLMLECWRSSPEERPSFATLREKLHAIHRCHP
Conditions: at 0.1 µM
Answer each item with its documented inhibition.
Hi! Could you send only the number? It should be in %, unit omitted.

Need inhibition, item "ON=C1CCc2cc(-c3nc(C4CCNCC4)[nH]c3-c3ccncc3)ccc21"
0

Need inhibition, item "Nc1nccc(-c2c(-c3ccc(F)cc3)nn3cc(C(F)(F)F)ccc23)n1"
0.31

Need inhibition, item "COc1ccc2ncnc(Nc3ccc(OCc4ccccc4)cc3)c2c1"
-1.19

Need inhibition, item "CCS(=O)(=O)c1ccc(OC)c(Nc2ncc(-c3cccc(OC)c3)o2)c1"
2.74

Need inhibition, item "O=C(Nc1ccc(Oc2ccc3[nH]c(NC(=O)c4ccco4)nc3c2)cc1)Nc1cc(C(F)(F)F)ccc1F"
3.74

Need inhibition, item "NS(=O)(=O)c1cccc(Nc2cc(-c3ccc(F)cc3)n[nH]2)c1"
-0.24

Need inhibition, item "CCOc1nccc2c1nc(-c1nonc1N)n2CC"
3.59

Need inhibition, item "NC(=O)c1cccc(Nc2nccc(Nc3cccc(F)c3)n2)c1"
1.56

Need inhibition, item "CC(C)c1ccc(Nc2nccc(-c3cnn4ncccc34)n2)cc1"
1.68

Need inhibition, item "COc1ccc(-c2nn3ncccc3c2-c2ccnc(Nc3cccc(C(F)(F)F)c3)n2)cc1"
-1.6

Need inhibition, item "CN1CCN(C(=O)c2ccc(NC(=O)Nc3ccc(N(C)c4ccnc(Nc5ccc(CS(C)(=O)=O)cc5)n4)cc3)cc2)CC1"
0.11

Need inhibition, item "COc1cccc(-n2ncc3c(N/N=C/c4ccc(C)cc4)ncnc32)c1"
-2.37

Need inhibition, item "NS(=O)(=O)c1ccc(-c2cc3ccncc3cc2OCc2ccccc2)cc1"
0.62

Need inhibition, item "c1ccc(Cc2nc3ccc(Nc4ncnc5ccccc45)cc3[nH]2)cc1"
-1.79

Need inhibition, item "CS(=O)(=O)Nc1cccc(-c2ccc3c(NC(=O)C4CC4)n[nH]c3c2)c1"
1.35

Need inhibition, item "COc1cccc(-n2ncc3c(N/N=C/c4ccc(S(C)(=O)=O)cc4)ncnc32)c1"
4.95

Need inhibition, item "NS(=O)(=O)c1cccc(-c2cc3ccncc3cc2OCc2ccccc2)c1"
-1.16

Need inhibition, item "[O-][S+]1CCN(Cc2ccc(-c3ccc4ncnc(Nc5ccc(OCc6ccccc6)c(Cl)c5)c4c3)o2)CC1"
-2.27

Need inhibition, item "O=C1Nc2ccccc2/C1=C/Nc1ccc2[nH]c(=O)[nH]c2c1"
-2.08

Need inhibition, item "Cc1ccc(Nc2ccnc(Nc3cccc(C(N)=O)c3)n2)cc1O"
10.8

Need inhibition, item "COc1cc2ncnc(Nc3ccc4c(cnn4Cc4ccccc4)c3)c2cc1OC"
0.35

###

Tested on: Tyrosine-protein kinase ABL1 (Homo sapiens), P00519 [M351T]
Conditions: at 1 µM
Answer each item with its documented inhibition.
Hi! Could you send only the number? It should be in %, unit omitted.

Need inhibition, item "COC(=O)c1ccc2c(c1)C(=Cc1cc(Br)c(O)c(Br)c1)C(=O)N2"
12.9

Need inhibition, item "CC(C)c1ccc(Nc2nccc(-c3cnn4ncccc34)n2)cc1"
10.2

Need inhibition, item "c1ccc(Nc2ncc(-c3ccccc3)o2)cc1"
17.6

Need inhibition, item "NS(=O)(=O)c1ccc(-c2cc3ccncc3cc2OCc2ccccc2)cc1"
4.42

Need inhibition, item "NS(=O)(=O)c1ccc(NC=C2C(=O)Nc3ccc4ncsc4c32)cc1"
50.6

Need inhibition, item "O=C1Nc2ccccc2/C1=C/Nc1ccc2[nH]c(=O)[nH]c2c1"
24.6

Need inhibition, item "COc1cc(/C=N/Nc2ncnc3c2cnn3C(C)C)ccc1O"
80.5

Need inhibition, item "CN(C)C(=O)O[C@H]1CN[C@H](C#Cc2cc3ncnc(Nc4ccc(OCc5cccc(F)c5)c(Cl)c4)c3s2)C1"
0.49

Need inhibition, item "CCS(=O)(=O)c1ccc(OC)c(Nc2ncc(-c3cccc(OC)c3)o2)c1"
86.1

Need inhibition, item "FC(F)(F)c1ccc(-c2nn3ncccc3c2-c2ccnc(Nc3ccc4c(c3)OCCO4)n2)cc1"
13.9
